# target.desc: UniProt P47871
# assay.comment: I125-glucagon binding assay (competition, GCGR membrane fractions)
# Design: expressed in transfected cells; host or cells: CHO-K1
# condition.info: competition with I125-glucagon 0.0625 nM; membrane fractions from GCGR overexpressed CHO-K1 cells
pIC50: −log10 of the molar value.
observation.type: pIC50

Illustrative cases are given below, each with its answer.
INSERT INTO assay_data (compound, target_desc, observation_type, result) VALUES
  ('CCOC(=O)CCNC(=O)c1ccc(N[C@@H](c2ccc(-c3nnc(-c4ccccc4)o3)cc2)C(C)CC)cc1 (stereo partly drawn)', 'UniProt P47871', 'pIC50', '< 4.52'),
  ('CCCCC(Nc1ccc(C(=O)NCCC(=O)OCC)cc1)c1ccc(-c2nnc(C(F)(F)F)o2)cc1 (stereo not drawn)', 'UniProt P47871', 'pIC50', '< 4.52');

Next compound, please.
Observed pIC50, UniProt P47871, CCOC(=O)CCNC(=O)c1ccc(N[C@H](c2ccc(-c3nc4ccccc4o3)cc2)C(C)CC)cc1 (stereo partly drawn) : 6.35

====

# target.desc: glucagon receptor (GCGR) (Homo sapiens, UniProt P47871)
# Sequence (P47871 26-477, species assumed): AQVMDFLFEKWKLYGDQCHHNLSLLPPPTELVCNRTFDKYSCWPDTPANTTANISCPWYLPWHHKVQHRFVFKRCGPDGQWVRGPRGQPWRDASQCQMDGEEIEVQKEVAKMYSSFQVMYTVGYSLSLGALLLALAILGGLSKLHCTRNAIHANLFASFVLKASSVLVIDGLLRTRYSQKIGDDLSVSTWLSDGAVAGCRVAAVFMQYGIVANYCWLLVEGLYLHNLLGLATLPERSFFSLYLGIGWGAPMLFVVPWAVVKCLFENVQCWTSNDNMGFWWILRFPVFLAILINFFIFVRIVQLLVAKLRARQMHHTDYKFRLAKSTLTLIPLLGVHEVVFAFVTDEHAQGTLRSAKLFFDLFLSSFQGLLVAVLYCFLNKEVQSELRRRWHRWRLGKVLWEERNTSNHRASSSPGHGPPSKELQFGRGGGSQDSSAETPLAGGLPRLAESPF
# assay.comment: Glucagon cAMP inhibition assay (Cisbio cAMP Dynamic 2 HTRF)
# condition.info: GCGR overexpressed CHO-K1 cells or human primary hepatocytes (not specified); glucagon at EC50
observation.type: IC50 (nM)

INSERT INTO assay_data (compound, target_desc, measured_number) VALUES
  ('CCC(C)[C@H](Nc1ccc(C(=O)NCCC(=O)O)cc1)c1ccc(-c2nnc(C(F)(F)F)o2)cc1 (stereo partly shown)', 'glucagon receptor (GCGR) (Homo sapiens, UniProt P47871)', 2040),
  ('CCCC[C@@H](Nc1ccc(C(=O)NCCC(=O)O)cc1)c1ccc(-c2nnc(C(F)(F)F)o2)cc1', 'glucagon receptor (GCGR) (Homo sapiens, UniProt P47871)', 3670),
  ('CC(C)[C@H](Nc1ccc(-c2nnc(-c3ccccc3)o2)cc1)c1ccc(C(=O)NCCC(=O)O)cc1', 'glucagon receptor (GCGR) (Homo sapiens, UniProt P47871)', 1780),
  ('CCCC[C@H](Nc1ccc(C(=O)NCCC(=O)O)cc1)c1ccc(-c2noc(C(F)(F)F)n2)cc1', 'glucagon receptor (GCGR) (Homo sapiens, UniProt P47871)', 428),
  ('CCOC(=O)CCNC(=O)c1ccc(NC(c2ccc(-c3nnc(-c4ccc(F)cc4)o3)cc2)C(C)C)cc1 (stereo not shown)', 'glucagon receptor (GCGR) (Homo sapiens, UniProt P47871)', 322),
  ('CCC(C)[C@H](Nc1ccc(C(=O)NCCC(=O)O)cc1)c1ccc(-c2noc(-c3ccccc3)n2)cc1 (stereo partly shown)', 'glucagon receptor (GCGR) (Homo sapiens, UniProt P47871)', 473),
  ('CCCCC(Nc1ccc(C(=O)NCCC(=O)O)cc1)c1ccc(-c2noc(-c3ccccc3)n2)cc1 (stereo not shown)', 'glucagon receptor (GCGR) (Homo sapiens, UniProt P47871)', 934),
  ('CCOC(=O)CCNC(=O)c1ccc(NC(c2ccc(-c3nnc(C(C)(C)C)o3)cc2)C(C)CC)cc1 (stereo not shown)', 'glucagon receptor (GCGR) (Homo sapiens, UniProt P47871)', 126),
  ('CCC(C)C(Nc1ccc(C(=O)NCCC(=O)O)cc1)c1ccc(-c2nnc(C(F)(F)F)o2)cc1 (stereo not shown)', 'glucagon receptor (GCGR) (Homo sapiens, UniProt P47871)', 3480),
  ('CCOC(=O)CCNC(=O)c1ccc(N[C@H](c2ccc(-c3nc4ccccc4s3)cc2)C(C)C)cc1', 'glucagon receptor (GCGR) (Homo sapiens, UniProt P47871)', 30.3);

A = CCCC[C@H](Nc1ccc(C(=O)NCCC(=O)OCC)cc1)c1ccc(-c2noc(-c3ccccc3)n2)cc1
B = CCOC(=O)CCNC(=O)c1ccc(OC(c2ccc(-c3nc4ccccc4s3)cc2)C(C)C)cc1 (stereo not shown)
Q: Please tell me which of the two, A or B , has the higher reported IC50 value. In your reply, give the label of the chosen option.
Result: A

A = CCCCC(Nc1ccc(C(=O)NCCC(=O)O)cc1)c1ccc(-c2noc(C(C)(C)C)n2)cc1 (stereo not shown)
B = CC(C)CC(Nc1ccc(C(=O)NCCC(=O)O)cc1)c1ccc(-c2noc(C(C)(C)C)n2)cc1 (stereo not shown)
Q: Form field 'greater IC50' accepts A or B ; which applies? Lab note: record the label of whichever item you select.
Result: B

====

# target.desc: glucagon receptor (GCGR) (Homo sapiens, UniProt P47871)
# assay.comment: Glucagon cAMP inhibition assay (Cisbio cAMP Dynamic 2 HTRF)
# condition.info: GCGR overexpressed CHO-K1 cells or human primary hepatocytes (not specified); glucagon at EC50
observation.type: IC50 (nM)

I = CCOC(=O)CCNC(=O)c1ccc(N[C@H](c2ccc(-c3nc4ccccc4o3)cc2)C2CCCC2)cc1
II = CC(C)[C@H](Nc1ccc(C(=O)NCCC(=O)O)cc1)c1ccc(-c2nc3ccccc3o2)cc1
III = CCOC(=O)CCNC(=O)c1ccc([C@@H](Nc2ccc(-c3nnc(-c4ccccc4)o3)cc2)C(C)C)cc1
IV = CC(C)[C@H](Nc1ccc(C(=O)NCCC(=O)O)cc1)c1ccc(-c2nnc(-c3ccccc3)o2)cc1
Q: sort_by: IC50; order: ascending; scope: items listed above In plain terms: list the labels in the order you were asked to.
Result: I, III, II, IV
(I: 65 nM, III: 277 nM, II: 651 nM, IV: 2710 nM)
